# measurement.notes: Toxicity liver stage against HepG2, at 10uM
# Type: cell-based
# Design: test concentration 10 uM, cell line HepG2-A16-CD81EGFP
# test.context: human, HepG2-A16-CD81EGFP cells; read-out: INHIBITION
Reported cytotoxicity at 10 µM is given for each of the following molecules.
Please give a number only; it is taken to be in %.

The examples below pair each entry with its known result.
[[record]]
molecule = "N#Cc1ccc(C(=O)N2C[C@@H](CN3CCCC3)C[C@H](CO)C2)cc1"
measured_result = -2.86

[[record]]
molecule = "O=C(NS(=O)(=O)c1cccnc1)C1CC(c2ccccc2)=NO1 (configuration not stated)"
measured_result = -8.87

[[record]]
molecule = "Cc1nn(-c2ccccc2)c(C)c1CC(=O)NC1CC(=O)N(C)C1 (configuration not stated)"
measured_result = 6.08

[[record]]
molecule = "CC(C)Nc1ncnc2c1CCN(C(=O)CN(C)C)CC2"
measured_result = -70.9

[[record]]
molecule = "Cc1cc(CNC(=O)N2CCCN(Cc3ccccc3)CC2)no1"
measured_result = -8.26

[[record]]
molecule = "CCc1nonc1NC(=O)C(C)Oc1ccccc1F (configuration not stated)"
measured_result = 12

[[record]]
molecule = "O=c1cc(N2CCCC2)cnn1CCc1cccc(F)c1"
measured_result = -12.8

[[record]]
molecule = "Cc1cc(C(=O)N2CCCC(c3cc(C(F)(F)F)[nH]n3)C2)on1 (configuration not stated)"
measured_result = 10.5


Task: Supply reported cytotoxicity at 10 µM belonging to this molecule: Cc1cc(C)c(CNc2cnc3ccccc3n2)c(=O)[nH]1
Output: 41.8

Task: Supply reported cytotoxicity at 10 µM belonging to this molecule: CC(C)CC(=O)Nc1ccccc1Oc1ccsc1C(=O)O
Output: 6.2

Task: Supply reported cytotoxicity at 10 µM belonging to this molecule: Cc1cnc(N2C[C@H]3CCN(CC4CC4)C[C@@H]3C2)nc1
Output: 7.55

###

# measurement.notes: Toxicity liver stage against HepG2, at 10uM
# Format: cell-based
# Parameters: test concentration 10 uM, cell line HepG2-A16-CD81EGFP
# test.context: human, HepG2-A16-CD81EGFP cells; read-out: INHIBITION
Reported cytotoxicity at 10 µM is given for each of the following compounds.
Please give a number only; it is taken to be in %.

[[record]]
compound = "O=C(c1cnccn1)N1CCN2C[C@H](OCC3CC3)C[C@H]2C1"
value_unit = "%"
measured_result = 2.92


Task: Supply reported cytotoxicity at 10 µM belonging to this compound: Cc1cc(OCCC(=O)Nc2cccc(F)c2)nnc1C
Output: -2.32

Task: Supply reported cytotoxicity at 10 µM belonging to this compound: CCCn1cc(C(=O)NCCS(N)(=O)=O)c2ccccc21
Output: 5.15

###

Reported cytotoxicity at 10 µM is given for each of the following molecules.
# measurement.notes: Toxicity liver stage against HepG2, at 10uM
# Format: cell-based
# Design: test concentration 10 uM, cell line HepG2-A16-CD81EGFP
# test.context: human, HepG2-A16-CD81EGFP cells; read-out: INHIBITION
Please give a number only; it is taken to be in %.

The examples below pair each entry with its known result.
[[record]]
molecule = "O=C(C[S+]([O-])Cc1cccc(F)c1)NC1CCCC1 (stereo unspecified)"
readout_label = "cytotoxicity at 10 µM"
measured_result = 1.79

[[record]]
molecule = "CN1CCN([C@@H]2CN(C(=O)c3cc4ccc(F)cc4[nH]3)C[C@H]2O)CC1"
readout_label = "cytotoxicity at 10 µM"
measured_result = -10.4

[[record]]
molecule = "O=C(CC1CCCC1)N1CCC2(CCN2Cc2ccc(F)cc2)C1 (stereo unspecified)"
readout_label = "cytotoxicity at 10 µM"
measured_result = -5.66

[[record]]
molecule = "CCN1CCC(N2CCN(C)C3(CCC(=O)N(CCOC)CC3)C2)CC1 (stereo unspecified)"
readout_label = "cytotoxicity at 10 µM"
measured_result = -0.724

[[record]]
molecule = "Cc1noc(C)c1CN(C)C(=O)c1ccc2c(c1O)OC(C)(C)C2"
readout_label = "cytotoxicity at 10 µM"
measured_result = -2.92


Task: Supply reported cytotoxicity at 10 µM belonging to this molecule: Cc1noc(C)c1C(=O)N1CCC2(CCc3ccccc3C(=O)N2)C1 (stereo unspecified)
Output: 1.75

Task: Supply reported cytotoxicity at 10 µM belonging to this molecule: CC(C)(C)c1c[nH]c([C@@H]2COCCN2C2CCCCC2)n1
Output: -1.6

Task: Supply reported cytotoxicity at 10 µM belonging to this molecule: Cc1cc(C(=O)N2CCC[C@]3(C[C@H](OCC4CC4)CO3)C2)no1
Output: -78.8

Task: Supply reported cytotoxicity at 10 µM belonging to this molecule: Cn1cc(C2CCCN2C(=O)c2ccc(NC3CC3)nc2)cn1 (stereo unspecified)
Output: -14.4

Task: Supply reported cytotoxicity at 10 µM belonging to this molecule: CCc1ccc(CNC(=O)CCc2nnc(-c3ccc(C)s3)o2)nc1
Output: -3.65

Task: Supply reported cytotoxicity at 10 µM belonging to this molecule: CNC(=O)[C@@H]1[C@@H](c2ccccc2)CN2CCN(Cc3ccccn3)C[C@H]12
Output: 8.76

Task: Supply reported cytotoxicity at 10 µM belonging to this molecule: O=C(C1CC1)N1CCC(c2nc(O)c3c(n2)CN(C2CCCC2)CC3)C1 (stereo unspecified)
Output: -24.1

Task: Supply reported cytotoxicity at 10 µM belonging to this molecule: COCCCN(Cc1cc(O)nc2ccccc12)C(=O)NC(C)C
Output: 0.829

Task: Supply reported cytotoxicity at 10 µM belonging to this molecule: CN(C)C(=O)CN1CCCN(CC2CCOc3ccccc3C2)CC1 (stereo unspecified)
Output: -3.42

Task: Supply reported cytotoxicity at 10 µM belonging to this molecule: Cc1nc(C)c(C(=O)N2CCCc3c(F)cccc32)o1
Output: -6.75
